FYI, the data here is from patent US20180228802A1.

target.entity: PD-1
protocol.summary: FACS; rank of the clone among the humanized BAP049 clones; cells and conditions not described in this filing
experimental.endpoint: Ranking, FACS data

Which Ranking, FACS data value is on record for Clone No. 1 (antibody, human IgG4 S228P, kappa, V domains shown) VH: EVQLVQSGAEVKKPGESLRISCKGSGYTFTTYWMHWVRQATGQGLEWMGNIYPGTGGSNFDEKFKNRVTITADKSTSTAYMELSSLRSEDTAVYYCTRWTTGTGAYWGQGTTVTVSS VL: EIVLTQSPATLSLSPGERATLSCKSSQSLLDSGNQKNFLTWYQQKPGQAPRLLIYWASTRESGVPSRFSGSGSGTEFTLTISSLQPDDFATYYCQNDYSYPYTFGQGTKVEIKR ?
2
